All values here come from the supplement of paper PMC10567573.

B1: FAM164A (parent)
chain: YDPDYIQCPYCQRRFNENAADRHI

Variants of: B1
TEST NAME: protein stability index of a GFP-peptide fusion (GPS, HEK-293T) (PSI 1-6); higher = more stable;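 also: lentivirally expressed fusions sorted by FACS into six bins by GFP to DsRed ratio, PSI derived from sequencing read proportions per bin multiplied by bin number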
DETAILS: c terminus: a fixed tail appended
Please use Yes whenever protein stability index is not below 4, and No whenever it is.

- SEQUENCE: "YDRDYIQCPYCQRRFNENAADRHI [P3R]"
  LABEL: "Yes"
- SEQUENCE: "YDPDYIQCPYCQRRFNYNAADRHI [E17Y]"
  LABEL: "Yes"
- SEQUENCE: "YVPDYIQCPYCQRRFNENAADRHI [D2V]"
  LABEL: "No"
- SEQUENCE: "YDPDYIQCPYCQRRFNENAADRHL [I24L]"
  LABEL: "No"
- SEQUENCE: "YDPDYIQCPYCQRRENENAADRHI [F15E]"
  LABEL: "No"
- SEQUENCE: "YDPDYIQCPYCQRRFNENAADRWI [H23W]"
  LABEL: "No"
- SEQUENCE: "YDPDYIQCPYCSRRFNENAADRHI [Q12S]"
  LABEL: "No"
- SEQUENCE: "YDKDYIQCPYCQRRFNENAADRHI [P3K]"
  LABEL: "Yes"
- SEQUENCE: "YDPDYIQCPQCQRRFNENAADRHI [Y10Q]"
  LABEL: "No"
- SEQUENCE: "YDPDYIQCPYCQNRFNENAADRHI [R13N]"
  LABEL: "No"
- SEQUENCE: "YDPDYIQCPYQQRRFNENAADRHI [C11Q]"
  LABEL: "No"
- SEQUENCE: "VDPDYIQCPYCQRRFNENAADRHI [Y1V]"
  LABEL: "Yes"
- SEQUENCE: "YDPDYIQCPYCQRRFNENYADRHI [A19Y]"
  LABEL: "No"
- SEQUENCE: "YDPDYIQCPYCQRRFNENAYDRHI [A20Y]"
  LABEL: "No"
- SEQUENCE: "KDPDYIQCPYCQRRFNENAADRHI [Y1K]"
  LABEL: "Yes"
- SEQUENCE: "YDPDYIQCPYCQRRFNSNAADRHI [E17S]"
  LABEL: "Yes"
- SEQUENCE: "YDPDYIQCPYCQRRQNENAADRHI [F15Q]"
  LABEL: "No"
- SEQUENCE: "YDPDYNQCPYCQRRFNENAADRHI [I6N]"
  LABEL: "No"
- SEQUENCE: "YDPDYIQCPYCQRRFNEVAADRHI [N18V]"
  LABEL: "No"
- SEQUENCE: "YDPDTIQCPYCQRRFNENAADRHI [Y5T]"
  LABEL: "Yes"
- SEQUENCE: "YDPDYIQCPYCQRRFNENAADRHH [I24H]"
  LABEL: "Yes"
- SEQUENCE: "YDPDYIQCPYCRRRFNENAADRHI [Q12R]"
  LABEL: "Yes"
- SEQUENCE: "YDPDYIQCPYCQRRFNENAADRHV [I24V]"
  LABEL: "Yes"
- SEQUENCE: "YDPDYIQCPYCQRRFNENAADDHI [R22D]"
  LABEL: "Yes"
- SEQUENCE: "YDPDYIQCPYCQRRFNENNADRHI [A19N]"
  LABEL: "Yes"
- SEQUENCE: "YDPDYIQCPYCQRRFNTNAADRHI [E17T]"
  LABEL: "Yes"
- SEQUENCE: "YDPDYIQCPYCQRRFNENAADRQI [H23Q]"
  LABEL: "Yes"
- SEQUENCE: "YDPDYIQCPYCGRRFNENAADRHI [Q12G]"
  LABEL: "Yes"
- SEQUENCE: "YDPDYIQCGYCQRRFNENAADRHI [P9G]"
  LABEL: "No"
- SEQUENCE: "YDPVYIQCPYCQRRFNENAADRHI [D4V]"
  LABEL: "No"
- SEQUENCE: "YDPHYIQCPYCQRRFNENAADRHI [D4H]"
  LABEL: "Yes"
- SEQUENCE: "YDPDYIQCPYCQRRFNENAADRHN [I24N]"
  LABEL: "Yes"
- SEQUENCE: "YDPDYIQCPYCQWRFNENAADRHI [R13W]"
  LABEL: "No"
- SEQUENCE: "YDPDYIQCPYCQDRFNENAADRHI [R13D]"
  LABEL: "No"
- SEQUENCE: "YDPDYIQCPYCQRRFNENAADYHI [R22Y]"
  LABEL: "No"
- SEQUENCE: "YDPDYIQCPYCQRRFNEFAADRHI [N18F]"
  LABEL: "No"
- SEQUENCE: "YDPDYIQCPYCQRRFNKNAADRHI [E17K]"
  LABEL: "Yes"
- SEQUENCE: "YNPDYIQCPYCQRRFNENAADRHI [D2N]"
  LABEL: "Yes"
- SEQUENCE: "YDPDYIQCPYCQRRFHENAADRHI [N16H]"
  LABEL: "No"
- SEQUENCE: "YDPDYIQCPLCQRRFNENAADRHI [Y10L]"
  LABEL: "No"
- SEQUENCE: "YDPDYIQCQYCQRRFNENAADRHI [P9Q]"
  LABEL: "No"
- SEQUENCE: "YDPDYIQCPYCQRRFNENAGDRHI [A20G]"
  LABEL: "No"
- SEQUENCE: "YDTDYIQCPYCQRRFNENAADRHI [P3T]"
  LABEL: "Yes"
- SEQUENCE: "YDPDYIVCPYCQRRFNENAADRHI [Q7V]"
  LABEL: "Yes"
- SEQUENCE: "YDPDYIQCPYCQRRFNENAADFHI [R22F]"
  LABEL: "No"
- SEQUENCE: "YDPDYIQCPCCQRRFNENAADRHI [Y10C]"
  LABEL: "No"
- SEQUENCE: "YDPDYIQCPYCQRRFNEAAADRHI [N18A]"
  LABEL: "Yes"
- SEQUENCE: "YDPDYIQCPYCQRDFNENAADRHI [R14D]"
  LABEL: "No"
- SEQUENCE: "YDPDYIQCPYCQYRFNENAADRHI [R13Y]"
  LABEL: "No"
- SEQUENCE: "YDPDYIQCPYYQRRFNENAADRHI [C11Y]"
  LABEL: "No"
- SEQUENCE: "YDPDYIQCPYCPRRFNENAADRHI [Q12P]"
  LABEL: "No"
- SEQUENCE: "YDPDYIQCPYCQRRFNENAAFRHI [D21F]"
  LABEL: "No"
- SEQUENCE: "YDPDYIQCPYCQRRFNENAADRVI [H23V]"
  LABEL: "Yes"
- SEQUENCE: "YDPLYIQCPYCQRRFNENAADRHI [D4L]"
  LABEL: "No"
- SEQUENCE: "YDPDYIQCMYCQRRFNENAADRHI [P9M]"
  LABEL: "No"
- SEQUENCE: "YDPDYIQCPYCWRRFNENAADRHI [Q12W]"
  LABEL: "No"
- SEQUENCE: "YDPDYIQCPYEQRRFNENAADRHI [C11E]"
  LABEL: "Yes"
- SEQUENCE: "YDPDYIQCPYCQRRFNEEAADRHI [N18E]"
  LABEL: "Yes"
- SEQUENCE: "YDPDYIQCDYCQRRFNENAADRHI [P9D]"
  LABEL: "No"
- SEQUENCE: "YDPDYAQCPYCQRRFNENAADRHI [I6A]"
  LABEL: "No"
- SEQUENCE: "YDPDYIFCPYCQRRFNENAADRHI [Q7F]"
  LABEL: "No"
- SEQUENCE: "YDPDYIQCPYCQRRFNENAADRHE [I24E]"
  LABEL: "Yes"
- SEQUENCE: "YDPDYIQCPYCQRRFNENAADRMI [H23M]"
  LABEL: "Yes"
- SEQUENCE: "YDPDYIQCPYCQRRFDENAADRHI [N16D]"
  LABEL: "No"
- SEQUENCE: "YDPDYIQCPYCQRRFPENAADRHI [N16P]"
  LABEL: "Yes"
- SEQUENCE: "YDQDYIQCPYCQRRFNENAADRHI [P3Q]"
  LABEL: "No"
- SEQUENCE: "YDPDVIQCPYCQRRFNENAADRHI [Y5V]"
  LABEL: "Yes"
- SEQUENCE: "YCPDYIQCPYCQRRFNENAADRHI [D2C]"
  LABEL: "No"
- SEQUENCE: "YDPDYIQCPYCQRAFNENAADRHI [R14A]"
  LABEL: "Yes"
- SEQUENCE: "YDPDYIMCPYCQRRFNENAADRHI [Q7M]"
  LABEL: "No"
- SEQUENCE: "YDPDYIQCPYCQRRFNENEADRHI [A19E]"
  LABEL: "Yes"
- SEQUENCE: "YDPDYIQCPHCQRRFNENAADRHI [Y10H]"
  LABEL: "No"
- SEQUENCE: "YDPDYIQCPYCQRMFNENAADRHI [R14M]"
  LABEL: "No"
- SEQUENCE: "YDPDYIQCAYCQRRFNENAADRHI [P9A]"
  LABEL: "No"
- SEQUENCE: "YDPDYIHCPYCQRRFNENAADRHI [Q7H]"
  LABEL: "No"
- SEQUENCE: "YDPDYIQCPYCQRRFNENAASRHI [D21S]"
  LABEL: "Yes"
- SEQUENCE: "YDPDYIQCPYGQRRFNENAADRHI [C11G]"
  LABEL: "No"
